pIC50: −log10 of the molar value.
Consider the following pIC50 data for UniProt:P27487, collected from several reports.
readoutType: pIC50

INSERT INTO results (smiles, readouttype, measurementqualifier, observedresult) VALUES
  ('N[C@H]1CN(c2cc(N3CCC(F)(F)C3)ncn2)C[C@@H]1N1CCCCC1=O', 'pIC50', '=', 7.59),
  ('Cc1cc(=O)n2nc(N3CC[C@H](c4cc(F)c(F)cc4F)[C@@H](N)C3)ccc2n1.O=C(O)C(F)(F)F', 'pIC50', '=', 8.10),
  ('N[C@H](C(=O)N1CC[C@H](F)C1)[C@@H](C(=O)Nn1cnnn1)c1ccc(-c2ccc(F)cc2)cc1.O=C(O)C(F)(F)F', 'pIC50', '=', 7.96),
  ('COc1ccc(/C=C/C(=O)C2=CC[C@H]3[C@@H]4CC=C5C[C@@H](O)CC[C@]5(C)[C@H]4CC[C@]23C)cc1OC', 'pIC50', '=', 4.58),
  ('S=C(CNCc1ccccc1)N1CCCCC1', 'pIC50', '<', 3.00);

---

pIC50: −log10 of the molar value.
// cross-study collection: pIC50 for Dipeptidyl peptidase 4 (Homo sapiens)
readoutType: pIC50

INSERT INTO assay_data (compound, observedresult) VALUES
  ('CC(C)c1ccccc1N1C(=O)Cc2ccccc2C1=O', '< 3.45'),
  ('N#Cc1ccc(Cc2nc(C(=O)NCC(=O)N3CC(F)(F)C[C@H]3C#N)cs2)cc1', '< 4.00'),
  ('N[C@H]1CN(c2nc3c(cc2F)c(=O)c(C(=O)O)cn3C2CC2)C[C@H]1c1ccc(O)cc1 (relative stereo)', '< 5.52');

---

pIC50: −log10 of the molar value.
Recorded pIC50 for compounds tested on Dipeptidyl peptidase 4 (Homo sapiens, UniProt P27487), drawn from a number of studies.
Sequence (P27487 whole entry): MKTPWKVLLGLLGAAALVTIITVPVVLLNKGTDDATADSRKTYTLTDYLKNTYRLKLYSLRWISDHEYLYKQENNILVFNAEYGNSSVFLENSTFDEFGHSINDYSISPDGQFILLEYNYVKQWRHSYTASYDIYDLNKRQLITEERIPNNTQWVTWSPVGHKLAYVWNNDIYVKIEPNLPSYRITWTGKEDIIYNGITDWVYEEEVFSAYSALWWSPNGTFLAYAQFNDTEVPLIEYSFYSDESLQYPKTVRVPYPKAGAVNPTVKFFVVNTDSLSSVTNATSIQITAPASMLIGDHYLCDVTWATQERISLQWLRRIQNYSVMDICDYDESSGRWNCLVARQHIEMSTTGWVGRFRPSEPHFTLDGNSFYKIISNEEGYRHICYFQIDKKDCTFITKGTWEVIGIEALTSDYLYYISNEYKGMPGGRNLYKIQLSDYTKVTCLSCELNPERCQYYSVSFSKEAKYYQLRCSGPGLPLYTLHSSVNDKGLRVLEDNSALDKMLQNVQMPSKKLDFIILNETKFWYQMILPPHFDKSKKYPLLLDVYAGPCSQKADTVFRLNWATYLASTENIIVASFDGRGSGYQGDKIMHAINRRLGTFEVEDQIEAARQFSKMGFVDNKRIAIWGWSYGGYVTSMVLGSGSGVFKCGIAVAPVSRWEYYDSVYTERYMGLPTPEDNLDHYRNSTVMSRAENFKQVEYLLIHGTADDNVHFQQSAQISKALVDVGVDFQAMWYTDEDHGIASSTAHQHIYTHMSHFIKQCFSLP
readoutType: pIC50

INSERT INTO assay_data (smiles, studytarget, observedresult) VALUES
  ('N[C@H]1CN(c2cc(Cl)nc(-c3ccccc3)n2)C[C@@H]1c1ccccc1', 'Dipeptidyl peptidase 4 (Homo sapiens, UniProt P27487)', '< 5.52'),
  ('FC(CNC1CCN(Cc2ccccc2)CC1)=C1CCCCC1', 'Dipeptidyl peptidase 4 (Homo sapiens, UniProt P27487)', '< 3.60'),
  ('N#C[C@@H]1CC(F)(F)CN1C(=O)CNC(=O)c1csc(CS(=O)(=O)c2ccc(C(F)(F)F)cc2)n1', 'Dipeptidyl peptidase 4 (Homo sapiens, UniProt P27487)', '< 4.00'),
  ('FC(CNC1CCCCC1)=C1CCCC1', 'Dipeptidyl peptidase 4 (Homo sapiens, UniProt P27487)', '< 3.00');

---

pIC50: −log10 of the molar value.
Below are pIC50 measurements against UniProt:P27487 drawn from the literature.
readoutType: pIC50

INSERT INTO results (compound, observedresult) VALUES
  ('NCCCC(N)C(=O)N1CCCCC1 (stereo unspecified)', '< 3.30'),
  ('C(CNCc1ccccc1)=C1CCCC1', '< 3.00'),
  ('CC1CCCCN1C(=O)[C@@H](N)CCNCc1ccc(Cl)cc1 (stereo partly specified)', '< 3.30'),
  ('FC(CNCc1ccc(F)cc1)=C1CCCC1', '< 3.00'),
  ('NCC[C@H](N)C(=O)N1CCCCC1', '< 3.00'),
  ('N#Cc1cccnc1N1C[C@H](c2ccccc2)[C@@H](N)C1', '< 5.52');

---

Here's a roundup of IC50 values tested on Dipeptidyl peptidase 4 (Homo sapiens), taken from various published works.
readoutType: IC50 (nM)

INSERT INTO assay_data (smiles, studytarget, measurementqualifier, observedresult) VALUES
  ('N#C[C@@H]1CC(F)(F)CN1C(=O)CNC(=O)c1csc(Cc2ccc(F)cc2Cl)n1', 'Dipeptidyl peptidase 4 (Homo sapiens)', '>', 100000),
  ('O=C([C@@H]1C[C@@H](Nc2ccc3ccccc3c2)CN1)N1Cc2ccccc2C1', 'Dipeptidyl peptidase 4 (Homo sapiens)', '>', 250000),
  ('O=C(CNC1CCC1)N1CCC[C@H]1B(O)O', 'Dipeptidyl peptidase 4 (Homo sapiens)', '=', 75),
  ('C[C@@H](c1ccc(Cl)cc1F)[C@H](N)C(=O)N1CC[C@H](F)C1', 'Dipeptidyl peptidase 4 (Homo sapiens)', '=', 480),
  ('C[C@H]1c2nnc(C(F)(F)F)n2CCN1C(=O)C[C@H](N)Cc1cc(F)c(F)cc1F', 'Dipeptidyl peptidase 4 (Homo sapiens)', '=', 88),
  ('N#C[C@@H]1CC(F)(F)CN1C(=O)CNC(=O)c1csc(Cc2ccccc2Br)n1', 'Dipeptidyl peptidase 4 (Homo sapiens)', '=', 200),
  ('N[C@@H](CC(=O)N1CCCN(C(=O)c2ccc(C(=O)O)o2)CC1)Cc1cc(F)c(F)cc1F', 'Dipeptidyl peptidase 4 (Homo sapiens)', '=', 260),
  ('Cc1ccc(N2C(=O)Cc3ccccc3C2=O)c(C)c1', 'Dipeptidyl peptidase 4 (Homo sapiens)', '>', 377000);

---

Hi, quick share: literature IC50 data for Dipeptidyl peptidase 4 (Homo sapiens, UniProt P27487), several sources combined.
readoutType: IC50

INSERT INTO results (smiles, readouttype, observedresult) VALUES
  ('N#C[C@@H]1CC(F)(F)CN1C(=O)CNC(=O)c1csc(COc2ccc(Cl)c(Cl)c2)n1', 'IC50', '> 100 µM'),
  ('CC#CCn1c(N2CCC[C@@H](N)C2)nc2c1c(=O)nc1n2CCCN1CCCc1ccccc1', 'IC50', '> 10 µM'),
  ('N[C@@H](CCNCc1ccccc1OCc1ccccc1)C(=O)N1CCCCC1', 'IC50', '> 500 µM'),
  ('Cc1cccc(C)c1N1C(=O)Cc2ccccc2C1=O', 'IC50', '> 377 µM'),
  ('NCC[C@H](NC1CCNCC1)C(=O)N1CCCCC1', 'IC50', '> 1000 µM');
